target: LSD1 (Homo sapiens (Human))
pIC50: −log10 of the molar value. Counter-ions that a name gives are not always drawn.
Readout Type: pIC50

Solved entries:
compound="N#Cc1ccc(-c2c(-c3ccc(Cl)c(O)c3)cnc(N3CCC(NCc4ccc(/C=C/C(=O)NO)cc4F)CC3)c2C#N)cn1 [Example 241, formate]" readout_type=pIC50 test_result=8.53
compound="CC1(NCc2ccc(/C=C/C(=O)NO)cc2)CCN(c2ncc(-c3ccc(OC(F)(F)F)c(O)c3)c(-c3ccc(C#N)c(F)c3)c2C#N)CC1 [Example 214, formate]" readout_type=pIC50 test_result=8.30
compound="COc1ccc(-c2cnc(N3CCC(NCc4ccc(/C=C/C(=O)NO)cc4)CC3)c(OC)c2-c2ccc(C#N)nc2)cc1O [Example 263, formate]" readout_type=pIC50 test_result=7.77
compound="COc1ccc(-c2cnc(N3CCC(NCc4ccc(/C=C/C(=O)NO)cc4)CC3)c(C)c2-c2ccc(C#N)nc2)cc1O [Example 254, formate]" readout_type=pIC50 test_result=7.45

[P] N#Cc1ccc(-c2c(-c3ccc(N4CCOCC4)c(O)c3)cnc(N3CCC(NCc4ccc(/C=C/C(=O)NO)cc4)CC3)c2C#N)cn1 [Example 244, formate]
[Q] COc1ccc(-c2cnc(N3CCC(NCc4ccc(SCC(=O)NO)cc4)CC3)c(C#N)c2-c2ccc(C#N)c(F)c2)cc1O
q: Between P and Q , which one shows the larger pIC50 value? Record your answer as the label of the chosen record.
a: Q
(Q: 9.82, P: 9.01)

[1] COc1ccc(-c2cnc(N3CCC(CNCc4ccc(/C=C/C(=O)NO)cc4)C3)c(C#N)c2-c2ccc(C#N)c(F)c2)cc1O (stereo not shown) [Example 228, hydrochloride]
[2] COc1ccc(-c2cnc(N3CCC(NCCOc4ccc(C(=O)NO)cc4)CC3)c(C#N)c2-c2ccc(C#N)c(F)c2)cc1O [Example 164, formate]
q: Please indicate which entry, 1 or 2 , has the lower recorded pIC50 value. Record your answer as the label of the chosen record.
a: 1

====

Target: HDAC8 (Homo sapiens (Human), UniProt Q9BY41)
Sequence (Q9BY41 whole entry): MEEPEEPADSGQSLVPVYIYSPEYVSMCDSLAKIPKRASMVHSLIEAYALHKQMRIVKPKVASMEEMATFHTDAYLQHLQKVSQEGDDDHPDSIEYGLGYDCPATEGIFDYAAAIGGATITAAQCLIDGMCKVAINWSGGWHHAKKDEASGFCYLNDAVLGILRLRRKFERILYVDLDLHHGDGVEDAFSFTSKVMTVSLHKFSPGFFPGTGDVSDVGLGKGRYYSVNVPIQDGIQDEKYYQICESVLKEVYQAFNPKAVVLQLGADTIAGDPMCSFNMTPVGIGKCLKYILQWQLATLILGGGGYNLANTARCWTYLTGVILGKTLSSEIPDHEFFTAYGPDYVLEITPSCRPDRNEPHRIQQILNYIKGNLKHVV
Assay: In vitro enzyme inhibition assay - HDAC (HDAC-Glo I/II), HDAC8
Format: biochemical
Settings: read-out: HDAC IC50 (nM) HDAC 8
Excerpt: 2. In Vitro Enzyme Inhibition Assay—HDAC The effect of the compound on the enzymatic activity of pan-HDAC and two isoforms (HDAC1 and HDAC8) was examined using the HDAC-Glo I/II Assay and Screening System assay to assess the level of inhibition of HDAC protease activity and selectivity in each isoform. […] The 384-well plate was then read on a multifunctional microplate reader, with the Luminescence channel selected to record Luminescence values (RLU). […]
Counter-ions that a name gives are not always drawn.
Readout Type: IC50 (nM)

molecule="COc1ccc(-c2cnc(N3CCC(NC(=O)CCCCCCC(=O)NO)CC3)c(C#N)c2-c2ccc(C#N)c(F)c2)cc1O [Example 177, formate]" test_result=581

[P] COc1cc(N2CCC(N)CC2)nc(-c2ccc(C#N)c(F)c2)c1-c1ccc(/C=C/C(=O)NO)c(O)c1 [Example 28, formate]
[Q] COc1ccc(-c2cnc(N3CCC(N)(c4ccc(/C=C/C(=O)NO)cc4)CC3)c(C#N)c2-c2ccc(C#N)c(F)c2)cc1O [Example 85]
q: Please indicate which entry, P or Q , has the lower recorded IC50 value. Record your answer as the label of the chosen record.
a: Q
